# Test Target: His-tagged human recombinant kinase full-length Akt1 (Homo sapiens)
# Construct: His-tagged human recombinant kinase full-length Akt1; His; purchased Invitrogen PV 3599; host or cells: insect cells
# Sequence (P31749 whole entry): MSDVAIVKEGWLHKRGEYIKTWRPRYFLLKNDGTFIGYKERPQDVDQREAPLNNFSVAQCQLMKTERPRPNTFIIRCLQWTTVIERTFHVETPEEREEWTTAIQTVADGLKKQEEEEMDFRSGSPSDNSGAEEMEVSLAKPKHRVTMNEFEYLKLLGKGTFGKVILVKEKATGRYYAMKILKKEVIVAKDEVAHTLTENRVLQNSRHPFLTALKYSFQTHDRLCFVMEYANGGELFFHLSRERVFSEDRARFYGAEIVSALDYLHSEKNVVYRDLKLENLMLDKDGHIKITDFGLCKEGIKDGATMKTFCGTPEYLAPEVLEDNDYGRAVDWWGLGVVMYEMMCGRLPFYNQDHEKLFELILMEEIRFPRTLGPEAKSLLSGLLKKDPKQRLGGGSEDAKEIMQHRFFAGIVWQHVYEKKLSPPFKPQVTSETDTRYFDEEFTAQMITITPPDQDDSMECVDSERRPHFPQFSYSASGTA
# Assay Details: Akt1 kinase assay (TR-FRET)
# Format: biochemical
# Condition Info: 10 μM ATP, 60 min at 22° C.; read-out: Akt1, median IC50
pIC50: −log10 of the molar value.
Measurement Name: pIC50

In [3]: df
Out[3]:
                         structure_notation  readout_number
0  CCc1cc(CC)n2nc(-c3ccc(C4(N)CCC4)cc3)c(-c3ccccc3)c2n1            6.39

a: NC1(c2ccc(-c3nn4c(C(F)(F)F)cc(C(F)(F)F)nc4c3-c3ccccc3)cc2)CCC1
b: Cc1cc(C)n2nc(-c3ccc(C4(N)CCC4)cc3)c(-c3ccccc3)c2n1
In terms of reported pIC50, does a or b have the smaller number? // output: label of the selected item a
(a: 6.49, b: 7.18)

---

# Test Target: His-tagged human recombinant kinase full-length Akt2 (Homo sapiens, UniProt P31751)
# Construct: His-tagged human recombinant kinase full-length Akt2; His
# Sequence (P31751 whole entry): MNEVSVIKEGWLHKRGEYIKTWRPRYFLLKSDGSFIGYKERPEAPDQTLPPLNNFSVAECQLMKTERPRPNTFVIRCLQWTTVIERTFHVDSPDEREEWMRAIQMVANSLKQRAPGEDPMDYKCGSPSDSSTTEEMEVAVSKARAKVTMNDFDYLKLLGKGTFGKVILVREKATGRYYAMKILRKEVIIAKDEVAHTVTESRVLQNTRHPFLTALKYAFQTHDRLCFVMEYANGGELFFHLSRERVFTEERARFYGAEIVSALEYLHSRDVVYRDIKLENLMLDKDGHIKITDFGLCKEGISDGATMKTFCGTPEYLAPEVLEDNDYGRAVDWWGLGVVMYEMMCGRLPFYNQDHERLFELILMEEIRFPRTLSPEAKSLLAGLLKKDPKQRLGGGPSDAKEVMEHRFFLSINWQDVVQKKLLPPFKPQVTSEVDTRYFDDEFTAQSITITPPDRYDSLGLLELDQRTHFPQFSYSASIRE
# Assay Details: Akt2 kinase assay (TR-FRET)
# Condition Info: 10 μM ATP, 60 min at 22° C.; read-out: Akt2, median IC50
Measurement Name: IC50 (µM)

                         structure_notation                               test_target  readout_number
0  Cc1cc(C)n2nc(-c3ccc(C4(N)CCC4)cc3)c(-c3ccccc3)c2n1  His-tagged human recombinant kinase full-length Akt2 (Homo sapiens, UniProt P31751)            0.46

I: CCc1cc(CC)n2nc(-c3ccc(C4(N)CCC4)cc3)c(-c3ccccc3)c2n1
II: NC1(c2ccc(-c3nn4c(C(F)(F)F)cc(C(F)(F)F)nc4c3-c3ccccc3)cc2)CCC1
Pick the one with the larger IC50: I vs II // output: label of the selected item II

Data provenance is patent US9370517B2.
